System: healthy volunteers (bent side of the forearm)
Experiment: 24 hour-occlusion patch test (Finn Chamber) of the original specimen
Format: in vivo, human
Settings: evaluation time 24 hrs; 46 persons; 0.03 ml original specimen
Can you tell me Positive +++ (Strongly positive), number of subjects for the items I'm about to list?
Enter a number only.

Supply measured Positive +++ (Strongly positive), number of subjects of CC(COC(=O)C(C)(C)C)OCC(C)OC(=O)C(C)(C)C (stereo not shown) [Example 2, Dipropyleneglycol dineopentanoate] in your reply.
0

Tell me measured Positive +++ (Strongly positive), number of subjects for CC(COC(=O)C(C)(C)C)OCC(C)OCC(C)OC(=O)C(C)(C)C (stereo not shown) [Example 1, Tripropyleneglycol dineopentanoate] please.
0

Name the recorded Positive +++ (Strongly positive), number of subjects of the molecule listed here: CC(COC(=O)C(C)(C)C)OCC(C)OCC(C)OCC(C)OC(=O)C(C)(C)C (stereo not shown) [Example 3, Tetrapropyleneglycol dineopentanoate]
0

Tell us which Positive +++ (Strongly positive), number of subjects value is on record for CCCCCCCCC(=O)OCCCCCCC(C)C [compound 3, Isononyl nonanoate, reference compound]
1
